# TEST_NAME: Cytotoxicity against human HepG2 cells assessed as cell growth inhibition incubated for 3 days by CellTiter-Glo reagent-based luminescence assay
# Format: toxicity
ATTRIBUTE_MEASURED: IC50 at 3 days

// solved cases for IC50 at 3 days follow
smiles_string=COc1ccc(-c2ccc3c(N)c(C(=O)Nc4cccc(C)c4C)sc3n2)cc1 experimental_result="> 100 µM"
smiles_string=COc1ccc(-c2cc(C(F)(F)F)c3c(N)c(C(=O)N4CCCC4)sc3n2)cc1 experimental_result="> 50 µM"
smiles_string=COc1ccc(-c2cc(C(F)(F)F)c3c(N)c(C(=O)Nc4c(C)cccc4C)sc3n2)cc1 experimental_result="> 100 µM"

Now examine the next entry.
Look up and state reported IC50 at 3 days for Cc1cccc(NC(=O)c2sc3nc(-c4ccccc4)cc(C(F)(F)F)c3c2N)c1C
> 100 µM
